# System: Mus musculus
# Experiment summary: Potency index, ratio of chlorzoxazone MED20 to compound MED20 for muscle relaxant activity in po dosed mouse assessed as blockade of pentylenetetrazol-induced tonic extensor seizure
# Type: functional
Measured quantity: Ratio

Mol smiles: CN1CCC/C1=N\C(=O)Nc1c(Cl)cccc1Cl
Numeric result: 4

Mol smiles: CN1CCC/C1=N\C(=O)Nc1c(Br)cccc1Br
Numeric result: 4

Mol smiles: CCc1cccc(CC)c1NC(=O)/N=C1\CCCN1C
Numeric result: 4

Mol smiles: CCc1cccc(C)c1NC(=O)/N=C1\CCCN1C
Numeric result: 4

Mol smiles: Cc1cccc(Cl)c1NC(=O)/N=C1\CCCN1C
Numeric result: 4

These data points were gathered from ChEMBL document CHEMBL3243921.
